The measurements presented in this section are drawn from PubChem BioAssay (NCI).

Hi there, I'd appreciate the recorded growth for every entry that follows.
System: HOP-92 NSCLC
Experiment: NCI-60 one-dose screen, 48 h (100 = growth as untreated, 0 = no growth, -100 = all killed)
Details: 10 µM
This is part of a sample that, as a whole, favours compounds with a hit. Of some 83,000 tested, about 20% had one in any assay. Active and inactive are the calls of the source. Rule for the calls: active = growth percent below 10; inactive = the rest.

Request: Query: growth; subject: COc1cc(/C=C/C(=O)c2ccc(NC(=O)CSc3nnc(-c4ccc(-c5nc6ccc(Cl)cc6[nH]5)cc4)o3)cc2)cc(OC)c1OC
Result: 115% (inactive)

Request: Query: growth; subject: COc1ccc(NC(=O)CSc2nnc(-c3ccc4nc(-c5ccc(OC)c(OC)c5)[nH]c4c3)o2)cc1OC
Result: 85.6% (inactive)

Request: Query: growth; subject: CC1(C)[C@@H](O)CC[C@]2(C)[C@H]3CC[C@@H]4[C@H]5[C@H](C(=O)/C=C\c6ccc([N+](=O)[O-])cc6)CC[C@]5(O)CC[C@@]4(C)[C@]3(C)CC[C@@H]12
Result: 82.7% (inactive)

Request: Query: growth; subject: COc1ccc(NC(=O)Nc2ccc3c(ccn3C(=O)c3cccc(F)c3)c2)cc1
Result: 71.6% (inactive)

Request: Query: growth; subject: Cc1ccc(-n2cc(/C=N/NC(=O)c3nc(N)n[nH]3)c(-c3ccc(S(C)(=O)=O)cc3)n2)cc1
Result: 94.2% (inactive)

Request: Query: growth; subject: COc1ccc(C2c3sc4c(C)cccc4c3Oc3nc(CC(=O)Nc4ccccc4)[nH]c(=O)c32)cc1 (configuration not stated)
Result: 59.1% (inactive)

Request: Query: growth; subject: N#Cc1cccc(NC(=O)c2cc(-c3ccc(F)cc3F)ccc2O)c1
Result: -24.7% (active)

Request: Query: growth; subject: Cn1ccnc1C(=O)/C=C/c1ccc(CNC(=O)c2c(F)c(F)c(F)c(F)c2F)cc1
Result: 117% (inactive)

Request: Query: growth; subject: CCCCCc1ccc(S(=O)(=O)Nc2cccc(-c3csc(NC(=O)CNCCN(C)C)n3)c2)cc1
Result: 53% (inactive)

Request: Query: growth; subject: COc1ccccc1N1CCN(C2=CC(=O)C(C)=C(C)C2=O)CC1
Result: 117% (inactive)

Request: Query: growth; subject: CC1=NC2=NN3C(=NN2C(c2ccccc2)=C1)N=NC(c1ccc(Br)cc1)=C3c1ccc(Br)cc1
Result: 110% (inactive)

Request: Query: growth; subject: O=C(NNc1nc2cc(F)c(F)cc2n2c(CN3CC4CNCC4C3)ccc12)c1cnccn1 (configuration not stated)
Result: 37.4% (inactive)

Request: Query: growth; subject: C=CCn1c(SCC(=O)Nc2ccc(C(=O)/C=C/c3ccc(Cl)cc3)cc2)nnc1-c1c[nH]c2ccccc12
Result: 79.9% (inactive)

Request: Query: growth; subject: O=S(=O)(NCCCNc1nccc(-n2cnc3ccccc32)n1)c1ccc(C(F)(F)F)cc1
Result: 80.2% (inactive)

Request: Query: growth; subject: COc1c(N2CC3CCCNC3C2)c(F)cc2c(=O)c(C(=O)N/N=C/c3ccc(Br)cc3)cn(C3CC3)c12 (configuration not stated)
Result: 57.9% (inactive)

Request: Query: growth; subject: NC(=O)c1c(NC(=O)c2ccccc2C(F)(F)F)sc2c1CCC(=O)C2
Result: -9.74% (active)

Request: Query: growth; subject: CCOc1ccc(NC2=C(Cl)C(=O)c3nc(C)ccc3C2=O)cc1
Result: -87% (active)

Request: Query: growth; subject: COc1c(N2CC3CCCNC3C2)c(F)cc2c(=O)c(C(=O)N/N=C/c3ccc4c(c3)OCO4)cn(C3CC3)c12 (configuration not stated)
Result: 67.4% (inactive)

Request: Query: growth; subject: CN(C)CCNC(=O)c1ccc(-c2nc3ccc4[nH]ncc4c3c3c2CCC3)cc1
Result: -29.8% (active)

Request: Query: growth; subject: Fc1ccc(-c2cc3nc(C(Cl)Cl)nc(-c4ccc(F)cc4)n3n2)cc1
Result: -3.1% (active)

Request: Query: growth; subject: N#Cc1cccc(CN2CCc3ncn(Cc4ccc(Cl)cc4)c(=O)c3C2)c1
Result: 30.3% (inactive)

Request: Query: growth; subject: Cc1ccc(-c2cc3nc(C(Cl)Cl)nc(C)n3n2)cc1
Result: 110% (inactive)

Request: Query: growth; subject: CCOC(=O)c1c(NC(=O)c2ccccc2C(F)(F)F)sc2c1CCC(=O)C2
Result: 40.1% (inactive)

Request: Query: growth; subject: COc1c(N2CC3CCCNC3C2)c(F)cc2c(=O)c(C(=O)N/N=C/c3ccc(F)cc3)cn(C3CC3)c12 (configuration not stated)
Result: 50.2% (inactive)

Request: Query: growth; subject: COc1ccc(C(=O)c2c(N)c(C#N)cn2-c2ccccc2OC)cc1
Result: 52.5% (inactive)

Request: Query: growth; subject: O=C(/C=C/c1ccc(F)cc1)c1ccc(O)cc1
Result: 109% (inactive)

Request: Query: growth; subject: N#Cc1cccc(CN2CCC3=C(C2)C(=O)N(Cc2ccc(Cl)cc2)C2=NCCCN23)c1
Result: 26.1% (inactive)

Request: Query: growth; subject: COc1cc(-c2nc(SCCC(C)C)nc(NNC(=O)c3ccncc3)c2C#N)cc(OC)c1OC
Result: 32.9% (inactive)

Request: Query: growth; subject: NS(=O)(=O)c1ccc(Nc2nc(N/N=C/c3c[nH]c4ccccc34)nc(Nc3ccccc3)n2)cc1
Result: 61.4% (inactive)

Request: Query: growth; subject: O=C(CSc1nnc(-c2ccc3nc(-c4ccccc4)[nH]c3c2)o1)Nc1ccc(C(=O)/C=C/c2ccccc2)cc1
Result: 149% (inactive)

Request: Query: growth; subject: CC(Nc1c(C#N)cnc2ccc(-c3cnc(N)nc3)cc12)c1ccccc1 (configuration not stated)
Result: -17.3% (active)

Request: Query: growth; subject: COc1ccccc1NCc1cccn1Cc1ccc(F)cc1
Result: 81.5% (inactive)

Request: Query: growth; subject: Cc1c(F)cc(C(N)=O)cc1NCC(=O)Nc1ccc([N+](=O)[O-])cc1
Result: 75.8% (inactive)

Request: Query: growth; subject: CCc1cccc(NC(=O)CNc2cc(S(=O)(=O)N(C)C)cc(C)c2C)c1
Result: 72% (inactive)

Request: Query: growth; subject: NS(=O)(=O)c1ccc(Nc2nc(N/N=C/c3ccccn3)nc(Nc3ccccc3)n2)cc1
Result: -46.6% (active)

Request: Query: growth; subject: COc1ccc([C@H]2c3[nH]c4ccccc4c3C[C@H]3C(=O)N(C4CCN(Cc5c(Cl)cccc5Cl)CC4)CC(=O)N23)c(OC)c1
Result: 79.4% (inactive)

Request: Query: growth; subject: CCc1ccc(SC2c3ccc(N(CC)CC)cc3Oc3nc(N)c(C#N)c(N)c32)cc1 (configuration not stated)
Result: -44.1% (active)

* * *

Test system: UACC-257 melanoma
Experiment: NCI-60 one-dose screen, 48 h (100 = growth as untreated, 0 = no growth, -100 = all killed)
Conditions: 10 µM unless noted
This is part of a sample that, as a whole, favours compounds with a hit. Of some 83,000 tested, about 20% had one in any assay.
parameter: growth (%)
Numeric only. Scale: %

Request: Query: growth; subject: COc1ccc(C(=O)CSc2nc3c(c(Nc4ccc(S(N)(=O)=O)cc4)n2)CCCC3)cc1
Result: 109

Request: Query: growth; subject: O=S(=O)(Nc1ccc(I)cc1Cl)c1ccc(-c2cnc(C3CC3)o2)cc1
Result: 58.5

Request: Query: growth; subject: O=C(CNc1nc(-c2cccc([N+](=O)[O-])c2)cs1)Nc1cccc(Cl)c1
Result: 118

Request: Query: growth; subject: Cc1ccc(-c2cc3nc(C(Cl)Cl)nc(-c4cccs4)n3n2)cc1
Result: 106

Request: Query: growth; subject: NS(=O)(=O)c1ccc(Nc2nc(N/N=C/c3ccc(Cl)cc3)nc(Nc3ccccc3)n2)cc1
Result: 89.5

Request: Query: growth; subject: COC(=O)c1ccc(NC2=C/C(=N/S(=O)(=O)c3ccc(C(=O)O)cc3)c3ccccc3C2=O)cc1
Result: -6.94

Request: Query: growth; subject: N=c1c2cc(-c3ccccc3)oc2ncn1/N=C/c1ccc(Cl)cc1
Result: 95.1

Request: Query: growth; subject: Cc1ccc(-c2nnc(SCc3ccc(O)c4ncccc34)n2-c2ccccc2)cc1
Result: -7.27

Request: Query: growth; subject: Cc1cccc2c3c(sc12)C(c1ccc(Cl)cc1)c1c(nc(CC(=O)Nc2ccccc2)[nH]c1=O)O3 (centres undefined)
Result: 79.8
